# Tested On: T1, PSMA Fab (006 PSMA Fab) (biotinylated (site not stated))
# T1 construct: also called Anti-PSMA Fab
# Test Details: phage ELISA on captured PSMA Fab, wells pre-incubated with PSMA antigen as competitor
Where no end group is shown, it is not given here.
Reported phage binding ELISA signal (Anti-PSMA Fab pre-incubated with PSMA antigen) values follow for various binders
Give the figure by itself; no unit, no explanation.

# count of solved cases: 5
Input: Query (binder): PEKWCIPPWMCTNF (cysteine pairing not given here; also: displayed on bacteriophage by fusion to pIII) [Phage-2329] ; field requested: phage binding ELISA signal (Anti-PSMA Fab pre-incubated with PSMA antigen)
Output: 0.065

Input: Ok, now EVKWCTPSWMCSGL [Phage-2330]
Output: 0.06

Input: Ok, now EFIRCLPPWMCAGF (cysteine pairing not given here; also: displayed on bacteriophage by fusion to pIII) [Phage-2334]
Output: 0.0734

Input: Ok, now LVHMCKPAWMCTNL [Phage-2340]
Output: 0.0708

Input: Ok, now GEIWCTPSWMCWGL [Phage-2341]
Output: 0.0653

Others:
Input: Query (binder): WYKWCTPAWMCEIS [Phage-2338] ; field requested: phage binding ELISA signal (Anti-PSMA Fab pre-incubated with PSMA antigen)
Output: 0.143

Input: Ok, now ELMWCIPPWMCEHS [Phage-2342]
Output: 0.0888

Input: Ok, now VVNWCVPEWMCSGF [Phage-2332]
Output: 0.0772

Input: Ok, now FEHWCTPEWMCLGM [Phage-2331]
Output: 0.0623

Input: Ok, now EGISCVPNWMCVGF [Phage-2339]
Output: 0.119

Input: Ok, now MVKLCIPEWMCDRQ [Phage-2337]
Output: 0.0609

Every entry's value here was drawn from patent US20260242478A1.
